target_or_system: Metabotropic glutamate receptor 5 (Homo sapiens, UniProt P41594)
Sequence (P41594 whole entry): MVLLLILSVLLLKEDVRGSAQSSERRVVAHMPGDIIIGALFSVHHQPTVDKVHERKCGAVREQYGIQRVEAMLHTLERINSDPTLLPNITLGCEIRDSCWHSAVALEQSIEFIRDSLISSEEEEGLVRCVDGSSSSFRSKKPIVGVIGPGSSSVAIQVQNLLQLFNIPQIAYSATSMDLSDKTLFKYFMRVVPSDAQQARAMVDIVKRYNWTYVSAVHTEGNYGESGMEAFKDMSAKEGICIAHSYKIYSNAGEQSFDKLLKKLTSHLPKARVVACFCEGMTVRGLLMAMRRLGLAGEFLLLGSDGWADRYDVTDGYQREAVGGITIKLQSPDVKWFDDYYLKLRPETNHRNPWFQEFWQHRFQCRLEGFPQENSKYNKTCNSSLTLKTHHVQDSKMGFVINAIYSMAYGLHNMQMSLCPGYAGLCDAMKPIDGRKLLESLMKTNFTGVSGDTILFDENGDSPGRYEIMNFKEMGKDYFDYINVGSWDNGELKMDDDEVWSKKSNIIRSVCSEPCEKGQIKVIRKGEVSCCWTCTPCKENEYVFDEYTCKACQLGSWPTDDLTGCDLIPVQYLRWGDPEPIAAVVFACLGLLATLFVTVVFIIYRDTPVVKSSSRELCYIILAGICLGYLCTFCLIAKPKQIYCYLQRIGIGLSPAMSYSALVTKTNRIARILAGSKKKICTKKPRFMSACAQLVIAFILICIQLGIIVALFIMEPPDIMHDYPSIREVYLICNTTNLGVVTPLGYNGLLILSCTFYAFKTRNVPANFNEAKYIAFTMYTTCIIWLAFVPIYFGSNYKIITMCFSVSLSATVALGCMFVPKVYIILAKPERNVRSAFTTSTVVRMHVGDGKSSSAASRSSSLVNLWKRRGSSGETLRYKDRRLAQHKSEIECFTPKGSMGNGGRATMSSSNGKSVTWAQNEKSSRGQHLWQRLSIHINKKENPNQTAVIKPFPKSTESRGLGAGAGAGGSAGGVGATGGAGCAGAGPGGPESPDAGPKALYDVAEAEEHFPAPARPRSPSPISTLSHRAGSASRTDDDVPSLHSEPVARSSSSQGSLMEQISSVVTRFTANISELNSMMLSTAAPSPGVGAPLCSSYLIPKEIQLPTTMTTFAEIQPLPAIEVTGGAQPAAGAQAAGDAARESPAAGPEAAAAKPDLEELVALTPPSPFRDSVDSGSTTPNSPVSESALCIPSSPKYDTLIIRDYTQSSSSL
assay_method_text: Antagonist activity at mGlu5 receptor
Overview of reported log10 Ki across a group of molecules:
For clarity, the numbers are log10 values of Ki expressed in nM.

Worked examples, 4 molecules total:
* Cc1nc(C(=O)Nc2cccc(CO)n2)c(Nc2cccnc2)s1 | 1.83
* Cc1cc(NC(=O)c2nc(C)sc2Nc2cncnc2)ccn1 | 1.91
* Cc1cc(NC(=O)c2nc(C)sc2Nc2cccnc2)ccn1 | 1.64
* Cc1nc(C(=O)Nc2ccc(O)c(C)n2)c(Nc2cccnc2)s1 | 2.05

Need log10 Ki, item Cc1cccc(NC(=O)c2nc(C)sc2Nc2cccnc2)n1
0.95

Quick check: log10 Ki of Cc1nc(C(=O)Nc2ccc(F)cn2)c(Nc2cncnc2)s1 ?
1.49

Reported log10 Ki, molecule Cc1nc(C(=O)Nc2ccc(F)cn2)c(Nc2cccnc2)s1 : ____
1.11

---

assay_method_text: in vivo
conditions: Wistar, rat, po
Description: Oral bioavailability in Wistar rat
quantity_measured: bioavailability (%)
Provide only the numeric value, understood in %.

So what's the measured bioavailability for this one? CC(C)N1CCC(Oc2ccc3[nH]c(C(=O)N4CCC(F)(F)CC4)cc3c2)CC1
100

---

Recorded clearance values for a group of compounds are listed next.
assay_method_text: Plasma clearance in Sprague-Dawley rat at 1 mg/kg, iv
Assay type: ADME, organism-based
Set-up: dose 1 mg/kg, route intravenous
Your answer should be a plain number; it is taken to be in mL/min/kg.

Below, each entry is followed by its recorded clearance result.
* O=C(Nc1nc(-c2ccc(F)c(C(F)(F)F)c2)ns1)c1cnc(N2CCC(C(=O)O)CC2)c(Cl)c1 | 1.49
* O=C(Nc1nc(-c2ccc(F)c(C(F)(F)F)c2)c(F)s1)c1cnc(N2CCC(C(=O)O)CC2)c(Cl)c1 | 2.79

Let's switch to this compound now.
Returns the measured clearance for the input compound. Input: O=C(Nc1nc(-c2ccc(F)c(C(F)(F)F)c2)cs1)c1cnc(N2CCC(C(=O)O)CC2)c(Cl)c1
6.89

---

assay_method_text: Half life in Sprague-Dawley rat at 1 mg/kg, iv
Type: ADME, organism-based
Set-up: dose 1 mg/kg, route intravenous
conditions: in vivo
quantity_measured: half-life (min)
Could you give me the number in min? Just the number is fine.

Below, 2 compounds whose answers are already recorded.
• O=C(Nc1nc(-c2ccc(F)c(C(F)(F)F)c2)ns1)c1cnc(N2CCC(C(=O)O)CC2)c(Cl)c1 = 65.4
• O=C(Nc1nc(-c2ccc(F)c(C(F)(F)F)c2)cs1)c1cnc(N2CCC(C(=O)O)CC2)c(Cl)c1 = 80.4

Let us move to another entry and its half-life.
What measured half-life goes with O=C(Nc1nc(-c2ccc(F)c(C(F)(F)F)c2)c(F)s1)c1cnc(N2CCC(C(=O)O)CC2)c(Cl)c1 ?
100

---

assay_method_text: physchem
Description: Dissociation constant, pKa of the compound
quantity_measured: pKa
Please give only the number in your answer, with no unit.

Past entries and their recorded results:
• c1cnsc1 = -0.51
• c1ccnnc1 = 2.3
• c1cocn1 = 0.8
• c1cn[nH]c1 = 2.52
• C1CCCNCC1 = 10.9

Consider the compound shown here: C1CNC1 What is its recorded pKa?
10.7

Could you share which pKa value was measured for c1cnccn1 ?
0.4
